- TARGET: T1, 3×FLAG-IL-6 (human)
- T1 construct: it may hold the pre-pro-trypsin leader
- T1 sequence (chain, as listed by the source limits assumed): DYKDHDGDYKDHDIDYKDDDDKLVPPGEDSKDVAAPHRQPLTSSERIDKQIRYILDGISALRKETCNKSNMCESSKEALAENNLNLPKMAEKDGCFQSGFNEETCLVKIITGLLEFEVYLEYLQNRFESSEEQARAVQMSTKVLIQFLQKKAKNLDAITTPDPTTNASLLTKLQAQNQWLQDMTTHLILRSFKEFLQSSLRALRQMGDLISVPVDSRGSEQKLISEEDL
- EXPERIMENTAL_PROTOCOL: SPR, 3×FLAG-IL-6 captured by anti-FLAG M2 on protein G, scFv as analyte (1-100 nM)
Quick reference: pKd of the listed items.
Formally, pKd is defined as -log10 of the concentration c, with c in mol/L.

Examples from the recorded data:
28D2-L Aha (scFv, azidohomoalanine (Aha) in place of a single Met in the Gly/Ser linker between VL and VH, also called E. coli 28D2 scFv with Aha in the Gly/Ser linker) scFv: MADIQLTQSPSFLSASVGDRVTITCQASEDLFSSLAWYQQKPGKAPKLLIYSASTLASGVPSRFSGSGSGTDFTLTISSLQPEDFATYYCLGLYYYLTPDPIYGFGGGTKVEIKGGGGSGMGGSGGGGSGGGGSEVQLVESGGGLVQPGGSLRLSCTVSGLSLSKNAIAWVRQAPGKGLEWVGIIYAGGATTYASWAKGRFTISRDNSKNTLYLQLNSLRAEDTAVYYCAREYAGDSYYTGYTQLDLWGQGTLVTVSSGPPPPPHHHHHH    10.28
28D2 N-Aha (scFv, azidohomoalanine (Aha) in place of the single Met, at the N terminus, also called E. coli 28D2 scFv with Aha at the N term) scFv: MEDIQLTQSPSFLSASVGDRVTITCQASEDLFSSLAWYQQKPGKAPKLLIYSASTLASGVPSRFSGSGSGTDFTLTISSLQPEDFATYYCLGLYYYLTPDPIYGFGGGTKVEIKGGGGSGGGGSGGGGSGGGGSEVQLVESGGGLVQPGGSLRLSCTVSGLSLSKNAIAWVRQAPGKGLEWVGIIYAGGATTYASWAKGRFTISRDNSKNTLYLQLNSLRAEDTAVYYCAREYAGDSYYTGYTQLDLWGQGTLVTVSSGPPPPPHHHHHH    10.21
28D2-C Aha (scFv, azidohomoalanine (Aha) in place of the single Met, at the C terminus) scFv: MAHHHHHHPPPPAAADIQLTQSPSFLSASVGDRVTITCQASEDLFSSLAWYQQKPGKAPKLLIYSASTLASGVPSRFSGSGSGTDFTLTISSLQPEDFATYYCLGLYYYLTPDPIYGFGGGTKVEIKGGGGSGGGGSGGGGSGGGGSEVQLVESGGGLVQPGGSLRLSCTVSGLSLSKNAIAWVRQAPGKGLEWVGIIYAGGATTYASWAKGRFTISRDNSKNTLYLQLNSLRAEDTAVYYCAREYAGDSYYTGYTQLDLWGQGTLVTVSSGM    10.28

Consider the additional binder presented here.
Query block: Looking for the measured pKd of 28D2 humanized scFv (mammalian expressed) (scFv, also called 28D2 scFv) scFv: DIQLTQSPSFLSASVGDRVTITCQASEDLFSSLAWYQQKPGKAPKLLIYSASTLASGVPSRFSGSGSGTDFTLTISSLQPEDFATYYCLGLYYYLTPDPIYGFGGGTKVEIKGGGGSGGGGSGGGGSGGGGSEVQLVESGGGLVQPGGSLRLSCTVSGLSLSKNAIAWVRQAPGKGLEWVGIIYAGGATTYASWAKGRFTISRDNSKNTLYLQMNSLRAEDTAVYYCAREYAGDSYYTGYTQLDLWGQGTLVTVSSGPPPPHHHHHH , can you help?
Result block: 9.96
